Origin of values: patent US20230322924A1

Reported koff by item:
- Measured Target: T1, Cyno CD33 ECD-HSA (cynomolgus monkey)
- T1 construct: Cyno CD33 extracellular domain fused to monomeric human serum albumin and a six-histidine tag; also called C33W1
- Assay Explanation: ProteOn SPR, mAb captured by anti-human Fc, 1:1 Langmuir fit
Only the number, expressed in s⁻¹, is required.

// worked examples, koff included
Binder	koff, s⁻¹
C33B63 (antibody, IgG1, V domains shown, huIgG1 F405L; also called C33F68; C33H51/C33L34) VH: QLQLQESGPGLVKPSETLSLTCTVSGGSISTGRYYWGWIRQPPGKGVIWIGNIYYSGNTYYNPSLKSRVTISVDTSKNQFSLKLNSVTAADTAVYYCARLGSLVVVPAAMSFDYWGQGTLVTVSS VL: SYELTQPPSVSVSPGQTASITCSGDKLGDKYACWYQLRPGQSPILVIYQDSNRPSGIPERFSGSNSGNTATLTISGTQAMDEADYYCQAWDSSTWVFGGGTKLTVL	0.00088
C33B54 (antibody, IgG1, V domains shown, huIgG1 F405L; also called C33F59; C33H44/C33L10) VH: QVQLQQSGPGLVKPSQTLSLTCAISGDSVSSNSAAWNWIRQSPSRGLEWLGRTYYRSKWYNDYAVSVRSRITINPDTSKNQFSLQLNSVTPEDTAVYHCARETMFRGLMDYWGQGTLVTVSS VL: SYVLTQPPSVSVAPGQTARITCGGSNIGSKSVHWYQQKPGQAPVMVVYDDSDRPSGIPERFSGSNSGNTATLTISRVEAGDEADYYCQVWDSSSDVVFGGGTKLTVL	0.000637

Please fill in: koff reported for C33B124 (antibody, IgG1, V domains shown, huIgG1 F405L; also called C33F129; C33H73/C33L32) VH: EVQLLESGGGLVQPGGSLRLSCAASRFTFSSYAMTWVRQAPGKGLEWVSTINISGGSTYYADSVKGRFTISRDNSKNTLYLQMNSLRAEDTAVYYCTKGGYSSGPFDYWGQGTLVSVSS VL: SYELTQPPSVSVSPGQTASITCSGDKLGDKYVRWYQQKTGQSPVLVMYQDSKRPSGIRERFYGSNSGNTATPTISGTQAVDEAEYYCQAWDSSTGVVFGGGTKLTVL = 0.000472
